experimental target: Norepinephrine Transporter (NET) (Rattus norvegicus, UniProt Q63380)
Sequence (Q63380 1-617): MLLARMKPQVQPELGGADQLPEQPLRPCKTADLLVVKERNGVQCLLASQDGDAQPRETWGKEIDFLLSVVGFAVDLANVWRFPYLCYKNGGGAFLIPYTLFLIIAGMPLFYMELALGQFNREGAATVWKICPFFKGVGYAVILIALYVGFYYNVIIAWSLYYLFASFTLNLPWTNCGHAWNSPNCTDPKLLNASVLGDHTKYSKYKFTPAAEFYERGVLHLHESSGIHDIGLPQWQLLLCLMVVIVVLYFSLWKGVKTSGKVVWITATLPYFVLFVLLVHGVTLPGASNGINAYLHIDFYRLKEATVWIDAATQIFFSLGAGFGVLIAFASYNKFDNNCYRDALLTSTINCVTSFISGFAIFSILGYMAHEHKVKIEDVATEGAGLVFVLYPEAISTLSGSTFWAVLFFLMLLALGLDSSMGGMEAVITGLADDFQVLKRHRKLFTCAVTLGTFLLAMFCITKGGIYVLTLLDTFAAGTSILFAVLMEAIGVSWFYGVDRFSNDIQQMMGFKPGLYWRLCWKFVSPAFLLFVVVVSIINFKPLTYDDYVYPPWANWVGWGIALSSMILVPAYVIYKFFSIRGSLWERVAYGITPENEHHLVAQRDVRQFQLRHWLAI
test name: NET-mediated release, rat brain synaptosomes
assay endpoint: EC50

INSERT INTO results (compound, experimental_target, endpoint_value) VALUES
  ('CCNCCc1c[nH]c2ccc(OC)cc12', 'Norepinephrine Transporter (NET) (Rattus norvegicus, UniProt Q63380)', '> 10 µM'),
  ('CN(C)CCc1c[nH]c2ccccc12', 'Norepinephrine Transporter (NET) (Rattus norvegicus, UniProt Q63380)', '4.17 µM'),
  ('CN(C)CCc1c[nH]c2ccc(O)cc12 [Compound 16, N,N-dimethyl-5-hydroxytryptamine]', 'Norepinephrine Transporter (NET) (Rattus norvegicus, UniProt Q63380)', '> 10 µM');

###

experimental target: Dopamine Transporter (DAT) (Rattus norvegicus)
Sequence (P23977 whole entry): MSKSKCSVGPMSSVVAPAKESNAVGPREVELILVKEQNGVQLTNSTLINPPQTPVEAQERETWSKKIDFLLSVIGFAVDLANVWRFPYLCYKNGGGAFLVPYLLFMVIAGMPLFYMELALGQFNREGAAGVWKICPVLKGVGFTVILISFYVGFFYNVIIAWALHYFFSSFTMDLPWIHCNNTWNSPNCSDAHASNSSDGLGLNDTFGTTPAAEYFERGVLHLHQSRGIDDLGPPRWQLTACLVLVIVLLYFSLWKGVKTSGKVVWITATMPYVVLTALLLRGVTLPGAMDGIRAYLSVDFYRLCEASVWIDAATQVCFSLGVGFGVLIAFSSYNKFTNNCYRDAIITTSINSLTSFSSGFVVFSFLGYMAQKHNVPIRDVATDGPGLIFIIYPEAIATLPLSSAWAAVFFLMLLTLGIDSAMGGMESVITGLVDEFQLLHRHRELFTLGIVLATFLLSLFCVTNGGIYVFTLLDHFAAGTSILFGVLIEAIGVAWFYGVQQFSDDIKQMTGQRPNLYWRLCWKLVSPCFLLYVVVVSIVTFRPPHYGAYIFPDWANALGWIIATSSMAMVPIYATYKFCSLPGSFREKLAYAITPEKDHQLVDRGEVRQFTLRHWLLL
test name: [3H]DA uptake inhibition, rat striatum synaptosomes
pIC50: −log10 of the molar value.
Each item that follows carries a reported pIC50.
assay endpoint: pIC50

INSERT INTO results (compound_string, endpoint_value) VALUES
  ('COc1ccc2[nH]cc(CCN(C)C(C)C)c2c1', '< 5.00'),
  ('CN(C)CCc1c[nH]c2cccc(O)c12', '< 5.00'),
  ('COc1ccc2[nH]cc(CCN(C(C)C)C(C)C)c2c1', '< 5.00'),
  ('COc1ccc2[nH]cc(CCN(C)C)c2c1', '< 5.00');

###

experimental target: 5-HT1A receptor (Homo sapiens, UniProt P08908)
Sequence (P08908 whole entry): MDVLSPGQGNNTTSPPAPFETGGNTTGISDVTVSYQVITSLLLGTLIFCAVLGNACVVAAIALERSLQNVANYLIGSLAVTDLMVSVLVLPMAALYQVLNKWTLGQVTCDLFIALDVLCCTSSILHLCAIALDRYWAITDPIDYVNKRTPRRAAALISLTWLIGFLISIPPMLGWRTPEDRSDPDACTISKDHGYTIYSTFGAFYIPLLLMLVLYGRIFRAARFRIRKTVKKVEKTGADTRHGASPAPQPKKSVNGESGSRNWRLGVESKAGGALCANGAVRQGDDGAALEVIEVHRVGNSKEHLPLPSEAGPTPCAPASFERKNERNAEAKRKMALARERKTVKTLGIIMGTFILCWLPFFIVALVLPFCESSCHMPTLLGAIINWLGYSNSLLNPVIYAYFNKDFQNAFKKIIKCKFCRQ
test name: 5-HT1A calcium mobilization assay in Gα16-CHO cells
pEC50: −log10 of the molar value.
Each item that follows carries a reported pEC50.
assay endpoint: pEC50

INSERT INTO results (molecule, operator_symbol, endpoint_value) VALUES
  ('COc1ccc2[nH]cc(CCN(C(C)C)C(C)C)c2c1', '<', 5.00),
  ('CN(C)CCc1c[nH]c2ccc(O)cc12 [Compound 16, N,N-dimethyl-5-hydroxytryptamine]', '=', 6.44),
  ('CNCCc1c[nH]c2ccccc12', '<', 5.00),
  ('CCNCCc1c[nH]c2ccc(OC)cc12', '=', 6.58),
  ('COc1ccc2[nH]cc(CCN(C)C(C)C)c2c1', '<', 5.00);

###

experimental target: 5-HT2A receptor (Homo sapiens, UniProt P28223)
test name: cell-based
Assay type: cell-based
assay setup: CHO-K1, read-out: 5-HT2A β-arrestin Emax
Sequence (P28223 whole entry): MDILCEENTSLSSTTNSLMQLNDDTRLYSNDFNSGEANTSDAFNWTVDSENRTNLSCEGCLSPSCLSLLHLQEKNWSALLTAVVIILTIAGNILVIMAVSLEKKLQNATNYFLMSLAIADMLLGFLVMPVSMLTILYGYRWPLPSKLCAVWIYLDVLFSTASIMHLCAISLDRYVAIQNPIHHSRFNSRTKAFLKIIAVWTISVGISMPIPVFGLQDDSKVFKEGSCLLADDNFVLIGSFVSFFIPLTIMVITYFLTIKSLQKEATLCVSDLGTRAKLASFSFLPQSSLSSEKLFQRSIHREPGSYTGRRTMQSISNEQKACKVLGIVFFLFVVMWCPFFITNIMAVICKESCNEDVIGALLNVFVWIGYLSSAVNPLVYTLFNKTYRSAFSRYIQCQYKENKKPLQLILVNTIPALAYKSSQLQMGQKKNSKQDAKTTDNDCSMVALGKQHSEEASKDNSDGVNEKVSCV
Sequence (P32121 whole entry, further chain): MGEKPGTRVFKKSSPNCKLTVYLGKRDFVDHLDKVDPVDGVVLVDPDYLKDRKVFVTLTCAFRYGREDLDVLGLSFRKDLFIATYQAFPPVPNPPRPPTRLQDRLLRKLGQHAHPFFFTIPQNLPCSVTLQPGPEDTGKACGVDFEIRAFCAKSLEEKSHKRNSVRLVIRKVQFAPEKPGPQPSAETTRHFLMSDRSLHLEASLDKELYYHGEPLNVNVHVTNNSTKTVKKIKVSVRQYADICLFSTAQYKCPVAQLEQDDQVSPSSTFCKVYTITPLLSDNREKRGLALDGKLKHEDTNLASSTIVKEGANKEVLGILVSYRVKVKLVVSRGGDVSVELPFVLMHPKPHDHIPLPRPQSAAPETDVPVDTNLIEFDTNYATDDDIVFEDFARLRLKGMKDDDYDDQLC
assay endpoint: Emax (%)

INSERT INTO assay_data (compound_string, endpoint_value) VALUES
  ('COc1ccc2[nH]cc(CCN(C)C(C)C)c2c1', 82),
  ('CCNCCc1c[nH]c2ccc(OC)cc12', 103),
  ('COc1ccc2[nH]cc(CCN(C)C)c2c1', 56),
  ('NCCc1c[nH]c2ccccc12', 108),
  ('COc1ccc2[nH]cc(CCN(C(C)C)C(C)C)c2c1', 124);

###

experimental target: 5-HT2A receptor (Homo sapiens)
test name: cell-based
Assay type: cell-based
assay setup: calcium mobilization, HEK293; mean ± SEM, three experiments in duplicate
Sequence (P28223 whole entry): as the sequence (P28223 whole entry) above
Each item that follows carries a reported 5-HT2A Emax.
assay endpoint: 5-HT2A Emax (%)

INSERT INTO results (compound_string, experimental_target, endpoint_value) VALUES
  ('CC(C)N(C)CCc1c[nH]c2ccccc12', '5-HT2A receptor (Homo sapiens)', 74),
  ('CCCN(CCC)CCc1c[nH]c2ccccc12', '5-HT2A receptor (Homo sapiens)', 97),
  ('CC(C)N(CCc1c[nH]c2ccccc12)C(C)C', '5-HT2A receptor (Homo sapiens)', 110),
  ('CCN(CC)CCc1c[nH]c2ccccc12', '5-HT2A receptor (Homo sapiens)', 90),
  ('CC(C)NCCc1c[nH]c2ccccc12', '5-HT2A receptor (Homo sapiens)', 96),
  ('CCN(CC)CCc1c[nH]c2ccc(OC)cc12', '5-HT2A receptor (Homo sapiens)', 101),
  ('CNCCc1c[nH]c2ccc(OC)cc12', '5-HT2A receptor (Homo sapiens)', 84),
  ('CCCN(CCC)CCc1c[nH]c2ccc(OC)cc12', '5-HT2A receptor (Homo sapiens)', 101),
  ('COc1ccc2[nH]cc(CCNC(C)C)c2c1', '5-HT2A receptor (Homo sapiens)', 101);

###

experimental target: 5-HT2A receptor (Homo sapiens, UniProt P28223)
test name: cell-based
Type: cell-based
assay setup: β-arrestin recruitment, CHOk1; mean ± SEM, three experiments in duplicate
assay endpoint: 5-HT2A β-arrestin Emax

INSERT INTO results (molecule, endpoint_value) VALUES
  ('COc1ccc2[nH]cc(CCNC(C)C)c2c1 [Compound 27]', '99 ± 6%'),
  ('CCN(CC)CCc1c[nH]c2ccc(OC)cc12 [Compound 26]', '64 ± 8%'),
  ('CCCN(CCC)CCc1c[nH]c2ccccc12 [Compound 21]', '63 ± 8%'),
  ('CCCN(CCC)CCc1c[nH]c2ccc(OC)cc12 [Compound 28]', '68 ± 2%'),
  ('CNCCc1c[nH]c2ccc(OC)cc12 [Compound 17]', '66 ± 9%');

###

experimental target: SERT (Rattus norvegicus, UniProt P31652)
Sequence (P31652 whole entry): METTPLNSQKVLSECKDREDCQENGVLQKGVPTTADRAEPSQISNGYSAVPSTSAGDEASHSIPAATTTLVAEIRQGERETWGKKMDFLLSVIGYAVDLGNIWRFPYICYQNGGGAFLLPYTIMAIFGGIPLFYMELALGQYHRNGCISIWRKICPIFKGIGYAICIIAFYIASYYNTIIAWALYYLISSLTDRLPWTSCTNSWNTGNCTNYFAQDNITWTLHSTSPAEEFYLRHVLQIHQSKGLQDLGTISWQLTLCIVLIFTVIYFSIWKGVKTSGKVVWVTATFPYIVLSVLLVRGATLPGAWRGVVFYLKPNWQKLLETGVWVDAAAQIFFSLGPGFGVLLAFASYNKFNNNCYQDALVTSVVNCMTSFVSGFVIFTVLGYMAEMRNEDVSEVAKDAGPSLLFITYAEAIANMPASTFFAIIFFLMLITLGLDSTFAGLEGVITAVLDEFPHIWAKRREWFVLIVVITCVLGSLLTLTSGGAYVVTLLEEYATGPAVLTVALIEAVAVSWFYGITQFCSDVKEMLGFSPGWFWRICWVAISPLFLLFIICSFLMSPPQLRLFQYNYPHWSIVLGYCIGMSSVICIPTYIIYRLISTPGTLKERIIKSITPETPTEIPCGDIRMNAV
test name: SERT-mediated release, rat brain synaptosomes
pEC50: −log10 of the molar value.
assay endpoint: pEC50

INSERT INTO measurements (compound_string, endpoint_value) VALUES
  ('CN(C)CCc1c[nH]c2ccccc12', 6.94),
  ('CCNCCc1c[nH]c2ccc(OC)cc12', 6.55);

###

experimental target: SERT (Rattus norvegicus, UniProt P31652)
test name: [3H]5-HT uptake inhibition, rat brain synaptosomes
pIC50: −log10 of the molar value.
assay endpoint: pIC50

INSERT INTO measurements (compound_string, assay_endpoint, operator_symbol, endpoint_value) VALUES
  ('COc1ccc2[nH]cc(CCN(C)C(C)C)c2c1', 'pIC50', '<', 5.00),
  ('COc1ccc2[nH]cc(CCN(C)C)c2c1', 'pIC50', '=', 5.66),
  ('COc1ccc2[nH]cc(CCN(C(C)C)C(C)C)c2c1', 'pIC50', '=', 6.19),
  ('CN(C)CCc1c[nH]c2cccc(O)c12', 'pIC50', '=', 6.18);

###

experimental target: 5-HT2A receptor (Homo sapiens, UniProt P28223)
test name: cell-based
assay endpoint: EC50 (nM)

INSERT INTO measurements (compound, operator_symbol, endpoint_value) VALUES
  ('CN(C)CCc1c[nH]c2ccccc12 [Compound 6, N,N-dimethyltryptamine]', '>', 10000),
  ('COc1ccc2[nH]cc(CCN(C)C(C)C)c2c1 [Compound 2, N-isopropyl-N-methyl-5-methoxytryptamine]', '=', 566),
  ('CNCCc1c[nH]c2ccccc12 [Compound 14, N-methyltryptamine]', '>', 10000),
  ('CCNCCc1c[nH]c2ccc(OC)cc12 [Compound 18, 5-methoxy-N-ethyltryptamine]', '=', 568);

###

experimental target: Dopamine Transporter (DAT) (Rattus norvegicus)
test name: DAT-mediated release, rat striatum synaptosomes
pEC50: −log10 of the molar value.
assay endpoint: pEC50

INSERT INTO assay_data (compound, assay_endpoint, endpoint_value) VALUES
  ('CN(C)CCc1c[nH]c2ccccc12 [Compound 6, N,N-dimethyltryptamine]', 'pEC50', '< 5.00'),
  ('CCNCCc1c[nH]c2ccc(OC)cc12 [Compound 18, 5-methoxy-N-ethyltryptamine]', 'pEC50', '< 5.00'),
  ('CN(C)CCc1c[nH]c2ccc(O)cc12 [Compound 16, N,N-dimethyl-5-hydroxytryptamine]', 'pEC50', '< 5.00');

###

experimental target: 5-HT2A receptor (Homo sapiens, UniProt P28223)
test name: cell-based
Assay type: cell-based
assay setup: HEK293, read-out: 5-HT2A Emax
assay endpoint: Emax (%)

INSERT INTO measurements (compound_string, experimental_target, assay_endpoint, endpoint_value) VALUES
  ('COc1ccc2[nH]cc(CCN(C)C)c2c1', '5-HT2A receptor (Homo sapiens, UniProt P28223)', 'Emax', 101),
  ('COc1ccc2[nH]cc(CCN(C)C(C)C)c2c1', '5-HT2A receptor (Homo sapiens, UniProt P28223)', 'Emax', 101),
  ('CCNCCc1c[nH]c2ccc(OC)cc12', '5-HT2A receptor (Homo sapiens, UniProt P28223)', 'Emax', 112),
  ('CN(C)CCc1c[nH]c2cccc(O)c12', '5-HT2A receptor (Homo sapiens, UniProt P28223)', 'Emax', 76),
  ('CN(C)CCc1c[nH]c2ccccc12', '5-HT2A receptor (Homo sapiens, UniProt P28223)', 'Emax', 83),
  ('COc1ccc2[nH]cc(CCN(C(C)C)C(C)C)c2c1', '5-HT2A receptor (Homo sapiens, UniProt P28223)', 'Emax', 109);
